Below are pIC50 values recorded for FMS kinase (Homo sapiens, UniProt P07333).
pIC50: −log10 of the molar value. Structures can show the parent of a compound that is named as a salt.

Exercise: Consider the compound `CCOc1ccn(-c2ccc(F)cc2)c(=O)c1C(=O)Nc1cc(F)c(Oc2ccnc(-c3cnn(C)c3)c2)cc1F` and give its measured pIC50.
Solution: 6.00 to 7.00

Exercise: Any idea what its pIC50 is? The compound is O=C(Nc1cc(F)c(Oc2ccnc(-c3cnn(CCO)c3)c2)cc1F)c1cccn(-c2ccc(F)cc2)c1=O [Example 3, hydrochloride]
Solution: ≥ 7.00

---

# TGT: Phospho-MET in EBC-1 cells (Homo sapiens)
# Construct: endogenous in cells
# Sequence (P08581 25-1390): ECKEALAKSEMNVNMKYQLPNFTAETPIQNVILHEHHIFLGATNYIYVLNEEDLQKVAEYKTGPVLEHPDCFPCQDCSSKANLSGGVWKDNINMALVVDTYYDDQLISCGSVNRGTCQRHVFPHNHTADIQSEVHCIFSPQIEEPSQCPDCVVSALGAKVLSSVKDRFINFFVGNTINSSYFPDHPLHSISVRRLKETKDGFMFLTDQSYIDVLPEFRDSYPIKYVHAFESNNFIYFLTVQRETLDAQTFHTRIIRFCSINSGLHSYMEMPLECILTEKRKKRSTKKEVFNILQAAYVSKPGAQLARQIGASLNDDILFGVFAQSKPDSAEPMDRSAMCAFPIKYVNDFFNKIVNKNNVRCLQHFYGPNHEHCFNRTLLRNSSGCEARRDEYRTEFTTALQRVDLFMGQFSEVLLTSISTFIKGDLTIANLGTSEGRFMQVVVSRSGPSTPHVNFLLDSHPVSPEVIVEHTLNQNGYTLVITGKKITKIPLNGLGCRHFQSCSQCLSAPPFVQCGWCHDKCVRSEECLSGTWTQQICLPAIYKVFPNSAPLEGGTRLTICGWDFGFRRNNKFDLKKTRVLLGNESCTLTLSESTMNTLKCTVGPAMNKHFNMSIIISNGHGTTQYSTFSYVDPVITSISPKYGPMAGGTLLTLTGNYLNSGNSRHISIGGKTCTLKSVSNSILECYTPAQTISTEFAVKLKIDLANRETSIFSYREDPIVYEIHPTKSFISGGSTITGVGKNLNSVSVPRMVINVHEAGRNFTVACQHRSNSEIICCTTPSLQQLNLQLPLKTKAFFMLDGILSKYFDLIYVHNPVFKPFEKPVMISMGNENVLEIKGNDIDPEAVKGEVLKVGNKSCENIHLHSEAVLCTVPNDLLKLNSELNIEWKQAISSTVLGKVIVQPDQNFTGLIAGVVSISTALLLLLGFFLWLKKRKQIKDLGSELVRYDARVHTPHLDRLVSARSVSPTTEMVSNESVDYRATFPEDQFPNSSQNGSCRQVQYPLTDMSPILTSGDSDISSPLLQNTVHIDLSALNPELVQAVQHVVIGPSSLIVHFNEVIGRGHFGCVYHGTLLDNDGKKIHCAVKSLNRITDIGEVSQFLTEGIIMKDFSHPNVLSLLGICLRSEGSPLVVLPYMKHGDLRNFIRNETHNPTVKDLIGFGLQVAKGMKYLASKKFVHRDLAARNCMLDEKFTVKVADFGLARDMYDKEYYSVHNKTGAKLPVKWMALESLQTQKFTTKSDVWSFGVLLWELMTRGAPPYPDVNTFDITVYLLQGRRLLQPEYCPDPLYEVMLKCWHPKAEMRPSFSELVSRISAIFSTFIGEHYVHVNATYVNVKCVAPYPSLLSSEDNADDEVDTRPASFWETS
# PROTOCOL_NOTES: EBC-1 phospho-MET ELISA
# MEASUREMENT_PARAMETERS: 6 h compound, 40 ng/mL HGF 10 min, read-out: EBC1 pMET
Structures can show the parent of a compound that is named as a salt.
Exercise: for every item that follows, state its recorded IC50.

Exercise: Requested field: IC50. Item: O=C(Nc1cc(F)c(Oc2ccnc(-c3cnn(CCO)c3)c2)cc1F)c1cccn(-c2ccc(F)cc2)c1=O [Example 3, hydrochloride]
Solution: ≤ 100 nM

Exercise: # lookup: IC50 of CCOc1ccn(-c2ccc(F)cc2)c(=O)c1C(=O)Nc1cc(F)c(Oc2ccnc(-c3cnn(C)c3)c2)cc1F [Example 2]
Solution: ≤ 100 nM

Exercise: Please give the measured IC50 for this molecule: Cn1cc(-c2cc(Oc3cc(F)c(NC(=O)c4cccn(-c5ccc(F)cc5)c4=O)cc3F)ccn2)cn1 [Example 1]
Solution: ≤ 100 nM

---

For each entry below, report its IC50 value.
# TGT: c-MET kinase (Seq. ID No. 2) (Homo sapiens, UniProt P08581)
# Construct: c-MET (c-MET residues: 956-1390, from Invitrogen, catalogue #PV3143, 6 nM); purchased Invitrogen PV3143
# Sequence (P08581 with tags, fused parts or gaps): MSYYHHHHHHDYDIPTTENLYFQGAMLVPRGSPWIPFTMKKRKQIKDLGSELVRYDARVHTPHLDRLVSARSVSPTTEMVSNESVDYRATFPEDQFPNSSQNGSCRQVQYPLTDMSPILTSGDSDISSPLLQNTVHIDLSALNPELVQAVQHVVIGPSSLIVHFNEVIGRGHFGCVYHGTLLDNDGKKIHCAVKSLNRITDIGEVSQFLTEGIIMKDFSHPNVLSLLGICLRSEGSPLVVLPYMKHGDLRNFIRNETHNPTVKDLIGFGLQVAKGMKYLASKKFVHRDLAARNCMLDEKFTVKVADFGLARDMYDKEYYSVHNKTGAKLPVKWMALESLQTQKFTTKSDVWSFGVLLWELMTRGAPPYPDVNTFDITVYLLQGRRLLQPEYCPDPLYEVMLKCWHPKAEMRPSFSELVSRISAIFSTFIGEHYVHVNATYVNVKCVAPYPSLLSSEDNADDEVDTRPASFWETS
# PROTOCOL_NOTES: c-MET kinase assay (pyruvate kinase/lactate dehydrogenase coupled, A340)
# Type: biochemical
# MEASUREMENT_PARAMETERS: enzymatic assay, 0.5 h pre-incubation, ATP 100 μM; read-out: cMET
Counter-ions that a name gives are not always drawn.

Exercise: Fill in: IC50 of CCOc1ccn(-c2ccc(F)cc2)c(=O)c1C(=O)Nc1cc(F)c(Oc2ccnc(-c3cn[nH]c3)c2)cc1F [Example 8, hydrochloride] is ___
Solution: ≤ 100 nM

Exercise: I have this compound here, O=C(Nc1cc(F)c(Oc2ccnc(-c3cnn(CCO)c3)c2)cc1F)c1cccn(-c2ccc(F)cc2)c1=O [Example 3, hydrochloride] , and I need its recorded IC50.
Solution: ≤ 100 nM

Exercise: Report IC50 for `CCOc1ccn(-c2ccc(F)cc2)c(=O)c1C(=O)Nc1cc(F)c(Oc2ccnc(-c3cnn(C)c3)c2)cc1F` please.
Solution: ≤ 100 nM

---

# TGT: c-KIT kinase (Seq. ID No. 1) (Homo sapiens, UniProt P10721)
# Construct: c-KIT (cKIT residues T544-V976, from ProQinase, 5.4 nM); purchased ProQinase
# Sequence (P10721 with tags, fused parts or gaps): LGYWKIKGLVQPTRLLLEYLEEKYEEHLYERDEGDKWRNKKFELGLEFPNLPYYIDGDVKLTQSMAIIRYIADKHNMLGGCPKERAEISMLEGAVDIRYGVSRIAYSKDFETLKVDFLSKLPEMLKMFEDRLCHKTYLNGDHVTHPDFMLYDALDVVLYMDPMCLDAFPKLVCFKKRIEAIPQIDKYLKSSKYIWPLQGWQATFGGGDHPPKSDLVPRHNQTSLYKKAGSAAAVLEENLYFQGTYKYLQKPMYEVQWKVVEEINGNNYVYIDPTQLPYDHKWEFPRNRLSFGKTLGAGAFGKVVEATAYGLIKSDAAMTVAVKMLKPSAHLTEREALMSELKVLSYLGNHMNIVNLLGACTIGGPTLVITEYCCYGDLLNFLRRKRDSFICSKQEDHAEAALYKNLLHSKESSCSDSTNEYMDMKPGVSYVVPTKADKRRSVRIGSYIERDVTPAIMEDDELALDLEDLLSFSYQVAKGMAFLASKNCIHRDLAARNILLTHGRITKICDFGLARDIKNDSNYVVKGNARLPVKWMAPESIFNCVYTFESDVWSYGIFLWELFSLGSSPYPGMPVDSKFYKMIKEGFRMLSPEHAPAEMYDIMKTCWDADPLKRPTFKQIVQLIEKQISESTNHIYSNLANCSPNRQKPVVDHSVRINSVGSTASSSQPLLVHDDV
# PROTOCOL_NOTES: c-KIT kinase assay (pyruvate kinase/lactate dehydrogenase coupled, A340)
# Format: biochemical
# MEASUREMENT_PARAMETERS: enzymatic assay, ATP 200 μM; read-out: cKIT
Counter-ions that a name gives are not always drawn.
Please go through the items and note down their IC50.

Exercise: # lookup: IC50 of CCOc1ccn(-c2ccc(F)cc2)c(=O)c1C(=O)Nc1cc(F)c(Oc2ccnc(-c3cnn(C(C)C)c3)c2)cc1F [Example 6]
Solution: > 1 µM

Exercise: Suppose we examine the compound CNc1ccn(-c2ccc(F)cc2)c(=O)c1C(=O)Nc1cc(F)c(Oc2ccnc(-c3cnn(C)c3)c2)cc1F [Example 4] ; what IC50 value has been reported?
Solution: 0.1 to 1 µM

Exercise: # lookup: IC50 of CCOc1ccn(-c2ccc(F)cc2)c(=O)c1C(=O)Nc1cc(F)c(Oc2ccnc(-c3cnn(CC)c3)c2)cc1F [Example 7]
Solution: > 1 µM

Exercise: Fill in the blank: the reported IC50 of CCOc1ccn(-c2ccc(F)cc2)c(=O)c1C(=O)Nc1cc(F)c(Oc2ccnc(-c3cn[nH]c3)c2)cc1F [Example 8, hydrochloride] is ____.
Solution: > 1 µM

Exercise: Record request: IC50 value, item O=C(Nc1cc(F)c(Oc2ccnc(-c3cnn(CCO)c3)c2)cc1F)c1cccn(-c2ccc(F)cc2)c1=O [Example 3, hydrochloride]
Solution: > 1 µM

Exercise: Consider the compound Cn1cc(C(=O)Nc2cc(F)c(Oc3ccnc(-c4cnn(C)c4)c3)cc2F)c(=O)c(-c2ccc(F)cc2)c1 [Example 9] and give its measured IC50.
Solution: ≤ 0.1 µM
